B1: LINE1-full (parent)
chain: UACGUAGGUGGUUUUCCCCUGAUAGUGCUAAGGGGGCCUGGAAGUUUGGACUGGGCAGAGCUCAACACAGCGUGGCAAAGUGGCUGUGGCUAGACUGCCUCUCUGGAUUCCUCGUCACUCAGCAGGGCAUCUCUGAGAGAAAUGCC

Variants of: B1
Assay: self-cleavage, relative activity (ratio to wild type); higher = more cleavage; in vitro, sequencing; the parent is a self-cleaving ribozyme
Everything with self-cleavage lower than 1 is 0.0; everything else, including exactly 1, is 1.0.

Here's what some known entries look like.
Req: Does self-cleavage meet or surpass 1 for U20C A138G ?
Resp: 1.0

Req: Repeat with A22G A124G
Resp: 0.0

Req: Can you check C3U U104C next?
Resp: 1.0

New cases:
Req: Please check the record U39A G80A and state if its self-cleavage is at or above 1.
Resp: 1.0

Req: Try the variant U62C A65G
Resp: 0.0

Req: Do the same for A31C U39C please
Resp: 1.0

Req: Now this one: U108C A138G
Resp: 1.0

Req: Query G4C U115A next
Resp: 1.0

Req: Queued: A22G U46A
Resp: 0.0

Req: Moving on to the next variant: U87A U91A
Resp: 0.0

Req: Do the same for U14C U73C please
Resp: 1.0

Req: For A6G A138G then?
Resp: 1.0

Req: Proceed to U15C U91C
Resp: 0.0

Req: Entry G49A U91G please
Resp: 0.0

Req: Can you handle U12C C98U next?
Resp: 0.0
